- Experimental system: Estrogen receptor (Homo sapiens) (UniProt P03372)
- Sequence (P03372 whole entry, looked up): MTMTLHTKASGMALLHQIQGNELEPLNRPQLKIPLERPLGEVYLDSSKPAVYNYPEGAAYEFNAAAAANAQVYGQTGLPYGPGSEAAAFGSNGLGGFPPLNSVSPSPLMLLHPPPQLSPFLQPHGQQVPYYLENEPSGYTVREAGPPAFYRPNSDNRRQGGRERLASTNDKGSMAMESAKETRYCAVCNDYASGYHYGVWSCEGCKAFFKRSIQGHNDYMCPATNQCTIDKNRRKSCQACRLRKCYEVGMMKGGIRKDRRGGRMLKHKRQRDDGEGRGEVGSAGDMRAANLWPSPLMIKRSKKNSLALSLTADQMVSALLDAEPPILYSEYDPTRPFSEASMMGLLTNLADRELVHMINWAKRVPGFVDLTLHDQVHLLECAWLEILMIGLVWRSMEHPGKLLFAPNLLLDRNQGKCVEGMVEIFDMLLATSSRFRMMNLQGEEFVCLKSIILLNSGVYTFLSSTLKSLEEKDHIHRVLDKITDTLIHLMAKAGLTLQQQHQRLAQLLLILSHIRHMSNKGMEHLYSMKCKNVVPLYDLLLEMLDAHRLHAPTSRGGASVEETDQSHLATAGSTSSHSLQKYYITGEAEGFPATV
- Run description: qHTS assay to identify small molecule antagonists of the estrogen receptor alpha (ER-alpha) signaling pathway (AID 743069)
- Study conditions: HEK293 ER-alpha-UAS-bla, beta-lactamase ratio, antagonist mode; series mostly up to 69.4 µM
Records with an inconclusive call do not appear. Activity calls are given as the source filed them. Calls come from the whole dose curve; as a rule, active = well fitted curve in the direction sought with a large enough effect in the signal ratio in the repeat runs (not every such curve was filed as active); inconclusive = weak or mixed curves, or effect the other way; inactive = no such curve, though single readings can be large or run the other way; the % refers to the signal ratio.
Permitted responses: active, inactive

Before answering, review these 5 worked examples.
Molecule: Nc1cc2c3c(c1)C(c1ccccc1)=N[C@@H](NC(=O)c1cccnc1)C(=O)N3CC2
Discrete label: inactive
//
Molecule: NC(=O)O
Discrete label: inactive
//
Molecule: Cc1cc(C)nc(Nc2ccccc2)n1
Discrete label: inactive
//
Molecule: O=[N+]([O-])c1cc(Cl)c(Cl)c(Cl)c1
Discrete label: inactive
//
Molecule: COC(=O)C1=CCCN(C)C1
Discrete label: inactive

Turning now to a further record.
Please share the test call associated with CCCCN(CCCCO)N=O .
inactive

====

- Run description: qHTS assay to identify small molecule agonists of the hypoxia (HIF-1) signaling pathway - cell viability counter screen (AID 1224844); note: nearly all actives have a fitted effect of over 50% in size
- Study conditions: HRE-bla ME-180 viability, CellTiter-Glo luminescence, 17 h; series mostly up to 76.8 µM
Inconclusive results are not listed. The source made the active and inactive calls. Calls come from the whole dose curve.
Measured quantity: outcome

Completed entries (count: 5):
Compound: CCCCOC(=O)[C@@H](C)Oc1ccc(Oc2ccc(C#N)cc2F)cc1
Obs value: inactive
//
Compound: Nc1cc2c3c(c1)C(c1ccccc1)=N[C@@H](NC(=O)c1cccnc1)C(=O)N3CC2
Obs value: inactive
//
Compound: C[N+](C)=CCl
Obs value: inactive
//
Compound: CCCCCCBr
Obs value: inactive
//
Compound: CC(=O)Nc1cc([As](=O)(O)O)ccc1O
Obs value: inactive

What does the data say about its outcome? Entry: C=CC1CC=CCC1 (stereo unspecified)
inactive

What does the data say about its outcome? Entry: COc1cc(OC)nc(Oc2cccc(Oc3nc(OC)cc(OC)n3)c2C(=O)O)n1
inactive

What does the data say about its outcome? Entry: CC1CCC(=O)O1 (stereo unspecified)
inactive

What does the data say about its outcome? Entry: O=C(CCCN1CCC(n2c(=O)[nH]c3ccccc32)CC1)c1ccc(F)cc1
inactive

What does the data say about its outcome? Entry: CN1CCC(N(Cc2ccccc2)c2ccccc2)CC1
inactive

What does the data say about its outcome? Entry: CC(=O)CCc1ccc2c(c1)OCO2
inactive

====

- Run description: Caspase-3/7 induction in CHO-K1 cells by small molecules, qHTS cell viability counter screen (AID 1346979); note: nearly all actives have a fitted effect of over 35% in size
- Study conditions: CellTiter-Fluor fluorescence, 17 h; series mostly up to 92.4 µM
Records with an inconclusive call do not appear. Calls of active or inactive are those of the source. Calls follow the shape of the dose curve; as a rule, active = well fitted cell-killing curve with a large enough effect in the repeat runs; inconclusive = weak or mixed curves, or effect the other way; inactive = no such curve, though single readings can be large or run the other way.
Permitted responses: YES (active), NO (inactive)

Before answering, review these 10 worked examples.
Molecule: Nc1c(Br)cc([N+](=O)[O-])cc1[N+](=O)[O-]
Discrete label: YES

Molecule: CCC1(c2ccccc2)C(=O)NC(=O)NC1=O
Discrete label: NO

Molecule: COc1cc2c(cc1OC)[C@@]13CCN4CC5=CCO[C@H]6CC(=O)N2[C@H]1[C@H]6[C@H]5C[C@H]43
Discrete label: NO

Molecule: Nc1cnn(-c2ccccc2)c(=O)c1Cl
Discrete label: NO

Molecule: O=P(O)(Oc1ccccc1)Oc1ccccc1
Discrete label: NO

Molecule: O=[N+]([O-])c1ccc2c3c(cccc13)CC2
Discrete label: NO

Molecule: CCN(CC)C(=O)[C@@H]1C=C2c3cccc4[nH]cc(c34)C[C@H]2N(C)C1
Discrete label: YES

Molecule: CCCCOC(=O)[C@@H](C)Oc1ccc(Oc2ccc(C#N)cc2F)cc1
Discrete label: NO

Molecule: O=C(CCN1CC1)OCC(CO)(COC(=O)CCN1CC1)COC(=O)CCN1CC1
Discrete label: NO

Molecule: CNC(=O)Oc1cccc(C(C)C)c1
Discrete label: NO

Please share the test call associated with CSc1ccc(C(=O)C(C)(C)N2CCOCC2)cc1 .
NO

Please share the test call associated with CNC(=O)Oc1ccc(N(C)C)c(C)c1 .
NO
